- system name: Amyloid-beta precursor protein (Homo sapiens)
- method description: Inhibition of self-induced aggregation of amyloid beta (1 to 42) (unknown origin) at 25 uM after 24 hrs by thioflavin T fluorescence-based fluorometric method relative to control
value kind: inhibition (%)
Kindly answer with a numeric value in %, unit omitted.

Example cases with answers are listed next.
[[record]]
entry_smiles = "COc1ccccc1CN(C)CCCn1sc2cc(OC)c(OC)cc2c1=O"
units_symbol = "%"
observed_result = 21.8

[[record]]
entry_smiles = "COc1cc2sn(CCCCCCN(C)Cc3ccccc3)c(=O)c2cc1OC"
units_symbol = "%"
observed_result = 4.3

[[record]]
entry_smiles = "COc1cc2s[nH]c(=O)c2cc1OC"
units_symbol = "%"
observed_result = 12.2

[[record]]
entry_smiles = "CCN(CCCCn1sc2cc(OC)c(OC)cc2c1=O)Cc1ccccc1OC"
units_symbol = "%"
observed_result = 21.1

[[record]]
entry_smiles = "CCN(CCCCCCN1C(=O)c2cc(OC)c(OC)cc2S1(=O)=O)Cc1ccccc1"
units_symbol = "%"
observed_result = 6


Item COc1cc2sn(CCCCN(C)Cc3ccccc3)c(=O)c2cc1OC was tested on Amyloid-beta precursor protein (Homo sapiens); the reported inhibition is 17.3
